Data origin, for the record: the supplement of paper PMC10567573

Entries and their protein stability index values follow.
B1: TEKT4 (parent)
chain: LREKLLEAEQSLRNLEDIHMSLEK

# Variants of: B1
# procedureDetails: protein stability index of a GFP-peptide fusion (GPS, HEK-293T) (PSI 1-6); higher = more stable;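 note: lentivirally expressed fusions sorted by FACS into six bins by GFP to DsRed ratio, PSI derived from sequencing read proportions per bin multiplied by bin number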
# recordedConditions: c terminus: a fixed tail appended
recordedEndpoint: protein stability index

[[record]]
variantname = "L6P"
resultvalue = 5.19

[[record]]
variantname = "N14P"
resultvalue = 2.04

[[record]]
variantname = "I18R"
resultvalue = 2.63

[[record]]
variantname = "A8Q"
resultvalue = 2.72

[[record]]
variantname = "H19D"
resultvalue = 3.48

[[record]]
variantname = "E3M"
resultvalue = 2.88

[[record]]
variantname = "K4Q"
resultvalue = 2.17

[[record]]
variantname = "L22W"
resultvalue = 1.55

[[record]]
variantname = "R2D"
resultvalue = 2.72

[[record]]
variantname = "L12M"
resultvalue = 2.97

[[record]]
variantname = "K24L"
resultvalue = 1.93

[[record]]
variantname = "E23T"
resultvalue = 1.71

[[record]]
variantname = "K4C"
resultvalue = 2.54

[[record]]
variantname = "D17A"
resultvalue = 2.31

[[record]]
variantname = "S11K"
resultvalue = 2.08

[[record]]
variantname = "L1W"
resultvalue = 1.92

[[record]]
variantname = "R13W"
resultvalue = 2.09

[[record]]
variantname = "L5M"
resultvalue = 3.2

[[record]]
variantname = "S21H"
resultvalue = 1.99

[[record]]
variantname = "I18V"
resultvalue = 3.21

[[record]]
variantname = "K24P"
resultvalue = 2.03

[[record]]
variantname = "M20Q"
resultvalue = 1.79

[[record]]
variantname = "L12H"
resultvalue = 4.44

[[record]]
variantname = "E16R"
resultvalue = 2.12

[[record]]
variantname = "I18E"
resultvalue = 1.69

[[record]]
variantname = "L1R"
resultvalue = 3.52

[[record]]
variantname = "I18C"
resultvalue = 2.63

[[record]]
variantname = "E9A"
resultvalue = 2.38

[[record]]
variantname = "S21Q"
resultvalue = 1.92

[[record]]
variantname = "L22K"
resultvalue = 3.54

[[record]]
variantname = "E3Y"
resultvalue = 2.15

[[record]]
variantname = "L5R"
resultvalue = 4.49

[[record]]
variantname = "S21F"
resultvalue = 2.63

[[record]]
variantname = "L1H"
resultvalue = 3.92

[[record]]
variantname = "D17G"
resultvalue = 2.81

